in vitro MEK assay: % inhibition @ 1 μM values by entry
- ASSAYED TARGET: MEK (Homo sapiens)
- Construct: no tag is given for the 2D mutant
- Sequence (Q02750 whole entry S218D/S222D, form open): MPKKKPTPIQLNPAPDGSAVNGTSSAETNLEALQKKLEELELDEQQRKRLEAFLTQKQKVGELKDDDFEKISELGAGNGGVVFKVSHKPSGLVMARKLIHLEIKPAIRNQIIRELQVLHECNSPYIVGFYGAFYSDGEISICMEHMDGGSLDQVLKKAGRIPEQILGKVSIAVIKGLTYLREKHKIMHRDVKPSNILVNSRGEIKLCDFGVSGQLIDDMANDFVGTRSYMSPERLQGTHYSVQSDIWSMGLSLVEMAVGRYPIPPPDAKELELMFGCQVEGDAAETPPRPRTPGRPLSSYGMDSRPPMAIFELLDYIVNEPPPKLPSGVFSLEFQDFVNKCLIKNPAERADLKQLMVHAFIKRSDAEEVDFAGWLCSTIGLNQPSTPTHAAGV
- PROCEDURE DETAILS: in vitro MEK assay
- Assay type: biochemical
- COND: @ 1 μM
- Protocol: For evaluation of direct MEK activity, 10 μg GST-MEK, is incubated in the presence of absence of test compound with 5 μg of a glutathione S-transferase fusion protein containing p44MAP kinase with a lysine to alanine mutation at position 71 (GST-MAPK-KA). This mutation eliminates kinase activity of MAPK, so only kinase activity attributed to the added MEK remains. […] Radioactivity incorporated into GST-MAPK-KA is determined by autoradiography, and subsequent scintillation counting of excised bands. […]
Your answer should be a plain number; it is taken to be in %.

Here are 7 compounds together with their reported answers.
For the compound Cc1cc(I)ccc1Nc1c(C(=O)O)cc(C(=O)N2CC[C@@H](O)C2)c(F)c1F , what in vitro MEK assay: % inhibition @ 1 μM is on record? 75

# in vitro MEK assay: % inhibition @ 1 μM lookup, item Cc1cc(I)ccc1Nc1c(C(=O)O)cc(C(=O)NC(C)CO)c(F)c1F (centres unmarked) 66

Dear colleague, I am looking for the recorded in vitro MEK assay: % inhibition @ 1 μM of the following compound: Cc1cc(I)ccc1N1COC(=O)c2cc(C(=O)Nc3nncs3)c(F)c(F)c21 31

Fill in the blank: the reported in vitro MEK assay: % inhibition @ 1 μM of Cc1cc(I)ccc1N1COC(=O)c2cc(C(=O)Nc3ccc(N(C)C)cc3)c(F)c(F)c21 is ____. 61

Please look up its in vitro MEK assay: % inhibition @ 1 μM: CSc1nc(NC(=O)c2cc3c(c(F)c2F)N(c2ccc(I)cc2C)COC3=O)n[nH]1 76

Recorded in vitro MEK assay: % inhibition @ 1 μM for Cc1cc(I)ccc1Nc1c(C(=O)O)cc(C(=O)N2CCSCC2)c(F)c1F , please? 82

Quick one: in vitro MEK assay: % inhibition @ 1 μM for Cc1cc(I)ccc1N1COC(=O)c2cc(C(=O)N3CCN(C)CC3)c(F)c(F)c21 ? 78

// moving on: another record for in vitro MEK assay: % inhibition @ 1 μM
Suppose we examine the compound Cc1cc(I)ccc1N1COC(=O)c2cc(C(=O)Nc3nc4ccccc4s3)c(F)c(F)c21 ; what in vitro MEK assay: % inhibition @ 1 μM value has been reported? 21
